Entry source: patent US20250257130A1

- Tested on: T1, Human ROR1-ECD-his (Acro Biosystems RO1-H522y) (human, UniProt Q01973 30-406)
- T1 construct: extracellular domain; bought protein; also called hROR1-ECD-his; hu-ROR1-ECD-his
- T1 sequence (Q01973 30-406): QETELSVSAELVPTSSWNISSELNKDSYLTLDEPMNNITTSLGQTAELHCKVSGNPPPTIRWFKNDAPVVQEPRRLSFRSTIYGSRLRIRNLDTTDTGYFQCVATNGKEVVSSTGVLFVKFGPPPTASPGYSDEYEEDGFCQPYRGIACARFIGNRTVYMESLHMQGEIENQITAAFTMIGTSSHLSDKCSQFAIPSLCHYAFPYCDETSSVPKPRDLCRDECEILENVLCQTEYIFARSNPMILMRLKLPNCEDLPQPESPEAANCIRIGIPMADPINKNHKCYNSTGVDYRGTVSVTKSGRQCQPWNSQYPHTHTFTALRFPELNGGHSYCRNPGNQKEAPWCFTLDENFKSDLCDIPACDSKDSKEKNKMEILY
- Assay: ELISA, coated hu-ROR1-ECD-his
- Protocol: Binding of recombinant anti-ROR1 antibodies to hu-ROR1-ECD-his was tested by ELISA. In brief, 1 μg/mL hu-ROR1-ECD-his was added to the 96-well plate, 100 μL each well, incubated at 4° C. overnight, washing the plates with 1×PBST 3 times, 300 ul/well, blocking the plates with 2% BSA in 1×PBST, 200 ul/well at 37° C. for 1 hour, anti-ROR1 antibodies were serially diluted in staining buffer (PBS containing 2% BSA). […]
Experimental readout: EC50

Examples with their reported EC50 follow.
Problem: Look up and state reported EC50 for PR000374 (antibody, human IgG1, kappa, V domains shown, positive control; also called Bench marker 1) VH: EVQLVESGGGLVQPGRSLRLSCTASGSDINDYPITWVRQAPGQGLEWIGFINSGGSTWYASWVKGRFTISRDDSKSIAYLQMNSLKTEDTAVYYCARGYSTYYRDFNIWGQGTLVTVSS VL: DIQMTQSPSSLSASVGDRVTINCQASQSIDSNLAWFQQKPGQPPKLLIYRASNLASGVPDRFSGSGSGTDFTLTISSLEAEDVATYYCLGGVGAVSYRTSFGGGTKVEIKR
Solution: 1 ng/mL

Problem: Look up and state reported EC50 for PR303199 (antibody, human IgG1, V domains shown, HCAb (heavy chain-only, human IgG1 Fc), no light chain) VH: EVQLVESGGGLVKPGGSLRLSCAASGFTFSDYYMSWIRQAPGKGLEWIAYISSSGSTIYYADSVKGRFTISRDNAKNSLYLQMNSLRAEDTAIYYCAREYYGSENYDHFDYWGQGTLVTVSS
Solution: 6 ng/mL

Problem: Look up and state reported EC50 for PR303191 (antibody, human IgG1, V domains shown, HCAb (heavy chain-only, human IgG1 Fc), no light chain) VH: EVQLLESGGGLVQPGGSLRLSCAASGFIFGSYAMSWVRQAPGKGLEWVSGISGTGGNTYYADSVKGRFTISRDNSKNTLYLQMNSLRAEDTAVYFCERGITIHGVVIIPPDYRGQGTLVTVSS
Solution: 1 ng/mL

Dear colleague, could you send me EC50 for each of the items below? Thanks.
1. PR303145 (antibody, human IgG1, V domains shown, HCAb (heavy chain-only, human IgG1 Fc), no light chain) VH: QVQLVESGGGLVKPGGSLRISCAASGFTFSNYNMSWIRQAPGKGVEWVSHISGSGRTIYYAESVKGRFTISRDNAKNSLYLQMNSLRAEDTAMYYCARDLSSGWYEDFDYWGQGTLVTVSS
2. PR303155 (antibody, human IgG1, V domains shown, HCAb (heavy chain-only, human IgG1 Fc), no light chain) VH: EVQLVESGGGLVKPGGSLRLSCAASGFTLSDYYMSWIRQAPGKGLEWISYISSNGSTIYYADSVKGRFTISRDNARNSLYLQMNSLRAEDTALYYCARDVSSGWYEDFDYWGQGTLVTVSS
3. PR303189 (antibody, human IgG1, V domains shown, HCAb (heavy chain-only, human IgG1 Fc), no light chain) VH: EVQLVESGGGLVKPGGSLRLSCAASGFNLSDSYMSWIRQAPGKGLEWVSCISSSGSTIYYADSVKGRFTVSRDNAKNSLYLQMNHLRAEDTALYYCARDCVIGIRDDSDIWGQGTMVTVSS
4. PR303201 (antibody, human IgG1, V domains shown, HCAb (heavy chain-only, human IgG1 Fc), no light chain) VH: EVQLLESGGGLVQPGGSLRLSCAASGFTFSGNAMSWVRQAPGKGLEWVSAISGSGDKTYYAASVKGRFTISRDNSNNTVYLQMNSLRAEDTAVYYCEKGAFRTTMDYWGQGTLVTVSS
5. PR303125 (antibody, human IgG1, V domains shown, HCAb (heavy chain-only, human IgG1 Fc), no light chain) VH: EVQLLESGGGLVQPGGSLRLSCAASGFTFSSHAMSWVRQAPGKGLEWVSAISGSGDSTHYAASVKGRFTISRDNSKNTLYLQMNSLRAEDTAVYYCETLLRFLESLGNDGFKIWGQGTMVTVSS
6. PR303147 (antibody, human IgG1, V domains shown, HCAb (heavy chain-only, human IgG1 Fc), no light chain) VH: EVQLVESGGGLVQPGGSLRLSCAASGFTFSNFWMYWVRQAPGKGLVWVSRINSDGSSTNYADSVKGRFTISRDNAKNTLYLQMNSLRVEDTAVYSCAREGSGWYEDFDYWGQGTLVTVSS

Solution:
1: 2 ng/mL; 2: 2 ng/mL; 3: 2 ng/mL; 4: 4 ng/mL; 5: 2 ng/mL; 6: 23 ng/mL
